TESTED SYSTEM: Voltage-gated inwardly rectifying potassium channel KCNH2 (Homo sapiens)
Sequence (Q12809 whole entry): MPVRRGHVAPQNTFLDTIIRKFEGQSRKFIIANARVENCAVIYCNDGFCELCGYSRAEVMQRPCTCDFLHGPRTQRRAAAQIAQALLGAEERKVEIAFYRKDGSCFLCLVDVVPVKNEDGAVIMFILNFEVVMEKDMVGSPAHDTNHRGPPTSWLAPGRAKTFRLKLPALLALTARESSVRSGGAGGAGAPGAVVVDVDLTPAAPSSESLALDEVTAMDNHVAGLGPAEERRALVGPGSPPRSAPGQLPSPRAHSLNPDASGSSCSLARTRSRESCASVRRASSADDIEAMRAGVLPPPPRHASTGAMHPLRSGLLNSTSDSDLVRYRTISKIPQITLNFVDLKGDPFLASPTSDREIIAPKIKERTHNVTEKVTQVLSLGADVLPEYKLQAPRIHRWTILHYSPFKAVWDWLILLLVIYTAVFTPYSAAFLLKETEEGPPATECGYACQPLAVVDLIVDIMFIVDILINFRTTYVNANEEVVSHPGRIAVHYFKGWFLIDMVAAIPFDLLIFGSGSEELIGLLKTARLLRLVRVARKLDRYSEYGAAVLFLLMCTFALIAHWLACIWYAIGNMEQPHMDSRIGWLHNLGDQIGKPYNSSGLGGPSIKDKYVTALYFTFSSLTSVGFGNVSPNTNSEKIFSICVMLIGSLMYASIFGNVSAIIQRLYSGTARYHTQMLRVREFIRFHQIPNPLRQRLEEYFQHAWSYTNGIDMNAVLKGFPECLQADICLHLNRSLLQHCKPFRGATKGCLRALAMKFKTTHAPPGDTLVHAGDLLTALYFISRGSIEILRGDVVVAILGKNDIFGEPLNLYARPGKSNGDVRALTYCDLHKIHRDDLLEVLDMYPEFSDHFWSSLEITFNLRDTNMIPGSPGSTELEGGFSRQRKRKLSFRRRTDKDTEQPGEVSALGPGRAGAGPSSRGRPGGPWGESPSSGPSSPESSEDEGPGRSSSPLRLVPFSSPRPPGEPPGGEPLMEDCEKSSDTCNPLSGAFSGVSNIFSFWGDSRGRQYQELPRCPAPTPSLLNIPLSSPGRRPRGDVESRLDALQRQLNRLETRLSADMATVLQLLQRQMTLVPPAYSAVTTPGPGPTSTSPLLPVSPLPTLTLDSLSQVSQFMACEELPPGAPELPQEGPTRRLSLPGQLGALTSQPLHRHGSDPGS
# Lookup of reported pIC50 keyed by entry
Scale for pIC50: -log10 of concentration given in mol/L; no unit attached.

Reference set, count: 6
* O=c1ccc2c([nH]1)CCC(NCCCCCCCNc1c3c(nc4cc(Cl)ccc14)CCCC3)C2 (configuration not stated) | 5.20
* O=c1ccc2c([nH]1)CCC(NCCCCCCNc1c3c(nc4cc(Cl)ccc14)CCCC3)C2 (configuration not stated) | 4.93
* O=c1ccc2c([nH]1)CCC(NCCCCCCCCNc1c3c(nc4cc(Cl)ccc14)CCCC3)C2 (configuration not stated) | 5.66
* O=c1ccc2c([nH]1)CCC(NCCCCCNc1c3c(nc4cc(Cl)ccc14)CCCC3)C2 (configuration not stated) | 5.12
* O=c1ccc2c([nH]1)CCC(NCCNc1c3c(nc4cc(Cl)ccc14)CCCC3)C2 (configuration not stated) | 5.62
* O=c1ccc2c([nH]1)CCC(NCCCCCCCCCCNc1c3c(nc4cc(Cl)ccc14)CCCC3)C2 (configuration not stated) | 5.56

Query: # input molecule: O=c1ccc2c([nH]1)CCC(NCCCNc1c3c(nc4cc(Cl)ccc14)CCCC3)C2 (configuration not stated) ; wanted: its pIC50
Result: 5.05

----------
# Lookup of reported log10 of IC50 keyed by entry
TESTED SYSTEM: Acetylcholinesterase (Rattus norvegicus)
Sequence (P37136 whole entry): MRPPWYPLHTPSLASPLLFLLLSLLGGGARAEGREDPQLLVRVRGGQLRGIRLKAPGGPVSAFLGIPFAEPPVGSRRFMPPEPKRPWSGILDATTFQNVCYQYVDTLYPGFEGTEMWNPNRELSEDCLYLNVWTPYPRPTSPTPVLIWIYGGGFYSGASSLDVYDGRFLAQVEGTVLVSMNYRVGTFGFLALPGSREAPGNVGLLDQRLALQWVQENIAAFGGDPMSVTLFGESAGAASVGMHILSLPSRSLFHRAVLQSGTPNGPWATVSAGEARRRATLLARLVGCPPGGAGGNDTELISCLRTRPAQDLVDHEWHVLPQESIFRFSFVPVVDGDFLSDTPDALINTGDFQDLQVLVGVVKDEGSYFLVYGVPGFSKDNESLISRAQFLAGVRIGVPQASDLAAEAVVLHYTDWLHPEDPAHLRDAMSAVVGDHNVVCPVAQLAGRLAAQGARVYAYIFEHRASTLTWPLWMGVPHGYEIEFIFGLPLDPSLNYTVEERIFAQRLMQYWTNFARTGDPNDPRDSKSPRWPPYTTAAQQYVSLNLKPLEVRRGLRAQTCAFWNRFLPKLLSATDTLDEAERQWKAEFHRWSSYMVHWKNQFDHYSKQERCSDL
Parameter value (number): base-10 log of IC50 in nM.

Reference set, count: 5
• O=c1ccc2c([nH]1)CCC(NCCCCCNc1c3c(nc4cc(Cl)ccc14)CCCC3)C2 (centres undefined) = 0.75
• O=c1ccc2c([nH]1)CCC(NCCCCCCNc1c3c(nc4cc(Cl)ccc14)CCCC3)C2 (centres undefined) = 0.78
• O=c1ccc2c([nH]1)CCC(NCCCCCCCNc1c3c(nc4cc(Cl)ccc14)CCCC3)C2 (centres undefined) = 1.17
• O=c1ccc2c([nH]1)CCC(NCCCCNc1c3c(nc4cc(Cl)ccc14)CCCC3)C2 (centres undefined) = 0.47
• O=c1ccc2c([nH]1)CCC(NCCCCCCCCNc1c3c(nc4cc(Cl)ccc14)CCCC3)C2 (centres undefined) = 1.10

Query: Provide value of log10 of IC50 for this record tested with Acetylcholinesterase (Rattus norvegicus): O=c1ccc2c([nH]1)CCC(NCCCNc1c3c(nc4cc(Cl)ccc14)CCCC3)C2 (centres undefined)
Result: -0.05

Query: Okay, and O=c1ccc2c([nH]1)CCC(NCCCCCCCCCNc1c3c(nc4cc(Cl)ccc14)CCCC3)C2 (centres undefined) ?
Result: 1.46

Query: Okay, and O=c1ccc2c([nH]1)CCC(NCCNc1c3c(nc4cc(Cl)ccc14)CCCC3)C2 (centres undefined) ?
Result: 1.25

Query: Okay, and O=c1ccc2c([nH]1)CCC(NCCCCCCCCCCNc1c3c(nc4cc(Cl)ccc14)CCCC3)C2 (centres undefined) ?
Result: 1.82

----------
TEST SUMMARY: Terminal half life in C57BL/6 mouse brain at 10 mg/kg, po administered as single dose measured upto 24 hrs by UPLC analysis
Format: ADME, organism-based
CONDITION INFO: read-out: beta t1/2 (converted)
QUANTITY KIND: half-life (h)
Write the answer as a number in h, unit excluded.

Query: # input compound: O=c1ccc2c([nH]1)CCC(NCCCNc1c3c(nc4cc(Cl)ccc14)CCCC3)C2 (stereo unspecified) ; wanted: its half-life
Result: 7.8

----------
TEST SUMMARY: in vitro
CONDITION INFO: rat, HepG2 cells
Description: Ratio of IC50 for cytotoxicity against human HepG2 cells to ratio of IC50 for inhibition of rat cortex AChE
QUANTITY KIND: selectivity ratio
Enter a number only.

Reference set, count: 3
- O=c1ccc2c([nH]1)CCC(NCCNc1c3c(nc4cc(Cl)ccc14)CCCC3)C2 (configuration not stated): 12100
- O=c1ccc2c([nH]1)CCC(NCCCCCCCCNc1c3c(nc4cc(Cl)ccc14)CCCC3)C2 (configuration not stated): 3340
- O=c1ccc2c([nH]1)CCC(NCCCNc1c3c(nc4cc(Cl)ccc14)CCCC3)C2 (configuration not stated): 119000

Query: # input compound: O=c1ccc2c([nH]1)CCC(NCCCCCCCCCCNc1c3c(nc4cc(Cl)ccc14)CCCC3)C2 (configuration not stated) ; wanted: its selectivity ratio
Result: 260

Query: Okay, and O=c1ccc2c([nH]1)CCC(NCCCCCCNc1c3c(nc4cc(Cl)ccc14)CCCC3)C2 (configuration not stated) ?
Result: 8520

Query: Okay, and O=c1ccc2c([nH]1)CCC(NCCCCCNc1c3c(nc4cc(Cl)ccc14)CCCC3)C2 (configuration not stated) ?
Result: 8340

Query: Okay, and O=c1ccc2c([nH]1)CCC(NCCCCCCCNc1c3c(nc4cc(Cl)ccc14)CCCC3)C2 (configuration not stated) ?
Result: 2660

----------
TEST SUMMARY: Cmax in C57BL/6 mouse brain at 10 mg/kg, po administered as single dose measured at […] by UPLC analysis
Type: ADME, organism-based
QUANTITY KIND: Cmax at […] (ng/mL)
Write the answer as a number in ng/mL, unit excluded.

Query: # input compound: O=c1ccc2c([nH]1)CCC(NCCCNc1c3c(nc4cc(Cl)ccc14)CCCC3)C2 (stereo unspecified) ; wanted: its Cmax at […]
Result: 4.02

----------
TEST SUMMARY: Terminal half life in C57BL/6 mouse kidney at 10 mg/kg, po administered as single dose by UPLC analysis
Format: ADME, organism-based
CONDITION INFO: read-out: beta t1/2 (converted)
QUANTITY KIND: half-life (h)
Write the answer as a number in h, unit excluded.

Query: # input compound: O=c1ccc2c([nH]1)CCC(NCCCNc1c3c(nc4cc(Cl)ccc14)CCCC3)C2 (stereo unspecified) ; wanted: its half-life
Result: 7.49

----------
TEST SUMMARY: AUC (0 to t) in C57BL/6 mouse plasma at 10 mg/kg, po administered as single dose measured upto 24 hrs by UPLC analysis
Format: ADME, organism-based
Set-up: route oral, dose 10 mg/kg, time <=24
CONDITION INFO: in vivo
QUANTITY KIND: AUCt (ng·h/mL)
Write the answer as a number in ng·h/mL, unit excluded.

Query: # input molecule: O=c1ccc2c([nH]1)CCC(NCCCNc1c3c(nc4cc(Cl)ccc14)CCCC3)C2 (stereo unspecified) ; wanted: its AUCt
Result: 246

----------
TEST SUMMARY: Tmax in C57BL/6 mouse liver at 10 mg/kg, po administered as single dose by UPLC analysis
Type: ADME, organism-based
QUANTITY KIND: Tmax (h)
Write the answer as a number in h, unit excluded.

Query: # input compound: O=c1ccc2c([nH]1)CCC(NCCCNc1c3c(nc4cc(Cl)ccc14)CCCC3)C2 (stereo unspecified) ; wanted: its Tmax
Result: 1.75

----------
TEST SUMMARY: MRT (0 to infinity) in C57BL/6 mouse brain at 10 mg/kg, po administered as single dose measured upto 24 hrs by UPLC analysis
Format: ADME, organism-based
QUANTITY KIND: MRT inf (h)
Write the answer as a number in h, unit excluded.

Query: # input compound: O=c1ccc2c([nH]1)CCC(NCCCNc1c3c(nc4cc(Cl)ccc14)CCCC3)C2 (stereo unspecified) ; wanted: its MRT inf
Result: 11.1

----------
TESTED SYSTEM: Butyrylcholinesterase (Rattus norvegicus)
Sequence (Q9JKC1 whole entry): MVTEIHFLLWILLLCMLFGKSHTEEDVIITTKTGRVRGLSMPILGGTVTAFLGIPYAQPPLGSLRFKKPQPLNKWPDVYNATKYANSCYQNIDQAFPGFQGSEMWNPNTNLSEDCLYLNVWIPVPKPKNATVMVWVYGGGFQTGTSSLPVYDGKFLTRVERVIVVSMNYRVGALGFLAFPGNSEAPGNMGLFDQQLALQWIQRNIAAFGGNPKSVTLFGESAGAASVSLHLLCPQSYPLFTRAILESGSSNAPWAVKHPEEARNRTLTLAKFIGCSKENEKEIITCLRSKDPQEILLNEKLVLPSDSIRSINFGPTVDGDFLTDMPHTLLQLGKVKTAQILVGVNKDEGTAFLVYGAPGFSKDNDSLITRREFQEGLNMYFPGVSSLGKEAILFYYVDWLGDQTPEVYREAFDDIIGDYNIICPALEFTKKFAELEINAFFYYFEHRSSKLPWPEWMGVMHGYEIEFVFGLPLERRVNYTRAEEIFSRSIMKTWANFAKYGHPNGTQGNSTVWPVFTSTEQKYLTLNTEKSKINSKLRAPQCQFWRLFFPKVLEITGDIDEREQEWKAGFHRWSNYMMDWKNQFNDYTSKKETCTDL
# Lookup of reported pIC50 keyed by entry
Scale for pIC50: -log10 of concentration given in mol/L; no unit attached.

Reference set, count: 2
- O=c1ccc2c([nH]1)CCC(NCCCCCCCCCNc1c3c(nc4cc(Cl)ccc14)CCCC3)C2 (stereo not drawn): 5.97
- O=c1ccc2c([nH]1)CCC(NCCCCCCCCNc1c3c(nc4cc(Cl)ccc14)CCCC3)C2 (stereo not drawn): 5.87

Switching to the query record.
Query: # input molecule: O=c1ccc2c([nH]1)CCC(NCCCCCCCNc1c3c(nc4cc(Cl)ccc14)CCCC3)C2 (stereo not drawn) ; wanted: its pIC50
Result: 6.05
